Can you tell me MIC for the items I'm about to list?
# System: M. avium 104
# Assay: microbe, parasite or virus in culture
# Assay type: cell-based, Mycobacterium avium
# Measurement Context: Mycobacterium avium, 104, 168 h
One number for each entry, in µg/mL.

Working through the 4 compounds below one at a time, give MIC for each.
1. NNC(=O)c1ccncc1
2. CC[C@@H](CO)NCCN[C@@H](CC)CO
3. [H]/N=C(/N)N[C@H]1[C@H](O)[C@@H](O)[C@H](O[C@@H]2O[C@@H](C)[C@](O)(C=O)[C@H]2O[C@@H]2O[C@@H](CO)[C@H](O)[C@@H](O)[C@@H]2NC)[C@@H](N/C(N)=N\[H])[C@@H]1O
4. CO[C@H]1/C=C/O[C@@]2(C)Oc3c(C)c(O)c4c(O)c(c(/C=N/N5CCN(C)CC5)c(O)c4c3C2=O)NC(=O)/C(C)=C\C=C\[C@H](C)[C@H](O)[C@@H](C)[C@@H](O)[C@@H](C)[C@H](OC(C)=O)[C@@H]1C

Solution:
1.56
1.6
3.13
0.25

* * *

# Test system: OCT313-resistant BCG
# Assay: microbe, parasite or virus in culture
# Format: cell-based, Mycobacterium bovis BCG
# Measurement Context: Mycobacterium tuberculosis variant bovis BCG, BCG, 336 h
Readout Kind: MIC (µg/mL)
Give bare numbers, in µg/mL.

>  <Sample Smiles>
CO[C@H]1/C=C/O[C@@]2(C)Oc3c(C)c(O)c4c(O)c(c(/C=N/N5CCN(C)CC5)c(O)c4c3C2=O)NC(=O)/C(C)=C\C=C\[C@H](C)[C@H](O)[C@@H](C)[C@@H](O)[C@@H](C)[C@H](OC(C)=O)[C@@H]1C

>  <Unit Of Measure>
µg/mL

>  <Reported>
0.01

$$$$
>  <Sample Smiles>
[H]/N=C(/N)N[C@H]1[C@H](O)[C@@H](O)[C@H](O[C@@H]2O[C@@H](C)[C@](O)(C=O)[C@H]2O[C@@H]2O[C@@H](CO)[C@H](O)[C@@H](O)[C@@H]2NC)[C@@H](N/C(N)=N\[H])[C@@H]1O

>  <Unit Of Measure>
µg/mL

>  <Reported>
0.2

$$$$
>  <Sample Smiles>
NNC(=O)c1ccncc1

>  <Unit Of Measure>
µg/mL

>  <Reported>
0.04

$$$$

// switching to the query compound
In plain terms, `CC[C@@H](CO)NCCN[C@@H](CC)CO` has a documented MIC of 3

* * *

# System: THP-1
# Measurement Context: human
Readout Kind: LC50/MIC

Consider the reported LC50/MIC for these compounds:
>  <Compound>
CC[C@@H](CO)NCCN[C@@H](CC)CO [EB, ethambutol]

>  <Target Or Test System>
THP-1

>  <LC50/MIC>
916

$$$$
>  <Compound>
CO[C@H]1/C=C/O[C@@]2(C)Oc3c(C)c(O)c4c(O)c(c(/C=N/N5CCN(C)CC5)c(O)c4c3C2=O)NC(=O)/C(C)=C\C=C\[C@H](C)[C@H](O)[C@@H](C)[C@@H](O)[C@@H](C)[C@H](OC(C)=O)[C@@H]1C [RFP, rifampicin]

>  <Target Or Test System>
THP-1

>  <LC50/MIC>
16,256

$$$$
>  <Compound>
[H]/N=C(/N)N[C@H]1[C@H](O)[C@@H](O)[C@H](O[C@@H]2O[C@@H](C)[C@](O)(C=O)[C@H]2O[C@@H]2O[C@@H](CO)[C@H](O)[C@@H](O)[C@@H]2NC)[C@@H](N/C(N)=N\[H])[C@@H]1O [SM, streptomycin]

>  <Target Or Test System>
THP-1

>  <LC50/MIC>
17,908

$$$$
>  <Compound>
CC(=O)N[C@@H]1[C@@H](O)[C@H](O)[C@@H](CO)O[C@H]1SC(=S)N(C)C [OCT313]

>  <Target Or Test System>
THP-1

>  <LC50/MIC>
356

$$$$

In plain terms, NNC(=O)c1ccncc1 [INH, isoniazid] has a documented LC50/MIC of 53,613
